# Protocol description: Pharmacokinetics and bioavailability test in rats (Example 57)
# Type: in vivo
# Measurement conditions: rat, plasma, iv; SD rats, i.v. 2.5 mg/kg; read-out: MRT(0-∞)
Recorded metric: MRT inf (h)

- N#Cc1ccc(N[C@H]2CC[C@H](N(C(=O)NCc3ccccc3)c3ccc(N4CCN(C5CCN(c6cc7c(cc6F)C(=O)N(C6CCC(=O)NC6=O)C7=O)CC5)CC4)cc3)CC2)nc1 (stereo partly shown): 2.32

====

# Protocol description: Pharmacokinetics and bioavailability test in rats (Example 60)
# Format: in vivo
# Measurement conditions: Sprague-Dawley, rat, plasma; SD rats, PO 10 mg/kg
Recorded metric: Cmax

- O=C1CCC(N2C(=O)c3cc(F)c(N4CCC(N5CCN(c6ccc(N(C(=O)NCc7ccccc7)[C@H]7CC[C@H](Nc8ncc9ccccc9n8)CC7)cn6)CC5)CC4)cc3C2=O)C(=O)N1 (stereo partly shown): 1130 ng/mL
- O=C1CCC(N2C(=O)c3cc(F)c(N4CCC(N5CCN(c6ccc(N(C(=O)NCc7ccccc7)[C@H]7CC[C@H](Nc8ncc9ccccc9n8)CC7)cc6)CC5)CC4)cc3C2=O)C(=O)N1 (stereo partly shown): 1040 ng/mL
- O=C1CCC(N2C(=O)c3ccc(N4CCC(N5CCN(c6ccc(N(C(=O)NCc7ccccc7F)[C@H]7CC[C@H](Nc8ncc9ccccc9n8)CC7)cc6)CC5)CC4)cc3C2=O)C(=O)N1 (stereo partly shown): 382 ng/mL
- O=C1CCC(N2C(=O)c3ccc(N4CCC(N5CCN(c6ccc(N(C(=O)NCc7ccccc7)[C@H]7CC[C@H](Nc8ncc9ccccc9n8)CC7)cc6)CC5)CC4)cc3C2=O)C(=O)N1 (stereo partly shown): 625 ng/mL
- O=C1CCC(N2C(=O)c3ccc(N4CCC(N5CCN(c6ccc(N(C(=O)NCc7ccccc7)[C@H]7CC[C@H](Nc8ncc9ccccc9n8)CC7)cn6)CC5)CC4)cc3C2=O)C(=O)N1 (stereo partly shown): 581 ng/mL
- O=C1CCC(N2C(=O)c3ccc(N4CCC(CN5CCN(c6ccc(N(C(=O)NCc7ccccc7)[C@H]7CC[C@H](Nc8ncc9ccccc9n8)CC7)cc6)CC5)CC4)cc3C2=O)C(=O)N1 (stereo partly shown): 593 ng/mL
- O=C1CCC(N2C(=O)c3ccc(N4CCC(N5CCN(c6ccc(N(C(=O)NCc7ccccc7)[C@H]7CC[C@H](Nc8ncc9ccccc9n8)CC7)cc6F)CC5)CC4)cc3C2=O)C(=O)N1 (stereo partly shown): 457 ng/mL

====

half-life reference
# Protocol description: Pharmacokinetics and bioavailability test in rats (Example 60)
# Assay type: in vivo
# Measurement conditions: Sprague-Dawley, rat, plasma; SD rats, PO 10 mg/kg
Recorded metric: half-life (h)

- O=C1CCC(N2C(=O)c3ccc(N4CCC(N5CCN(c6ccc(N(C(=O)NCc7ccccc7)[C@H]7CC[C@H](Nc8ncc9ccccc9n8)CC7)cc6F)CC5)CC4)cc3C2=O)C(=O)N1 (stereo partly shown) [YJZ1204]: 10.8
- O=C1CCC(N2C(=O)c3ccc(N4CCC(N5CCN(c6ccc(N(C(=O)NCc7ccccc7)[C@H]7CC[C@H](Nc8ncc9ccccc9n8)CC7)cc6)CC5)CC4)cc3C2=O)C(=O)N1 (stereo partly shown) [YJZ1105]: 7.2
- O=C1CCC(N2C(=O)c3ccc(N4CCC(N5CCN(c6ccc(N(C(=O)NCc7ccccc7)[C@H]7CC[C@H](Nc8ncc9ccccc9n8)CC7)cn6)CC5)CC4)cc3C2=O)C(=O)N1 (stereo partly shown) [YJZ1205]: 4.2
- O=C1CCC(N2C(=O)c3cc(F)c(N4CCC(N5CCN(c6ccc(N(C(=O)NCc7ccccc7)[C@H]7CC[C@H](Nc8ncc9ccccc9n8)CC7)cc6)CC5)CC4)cc3C2=O)C(=O)N1 (stereo partly shown) [YJZ1201]: 12.4
- O=C1CCC(N2C(=O)c3ccc(N4CCC(N5CCN(c6ccc(N(C(=O)NCc7ccccc7F)[C@H]7CC[C@H](Nc8ncc9ccccc9n8)CC7)cc6)CC5)CC4)cc3C2=O)C(=O)N1 (stereo partly shown) [YJZ1203]: 6.4
- O=C1CCC(N2C(=O)c3ccc(N4CCC(CN5CCN(c6ccc(N(C(=O)NCc7ccccc7)[C@H]7CC[C@H](Nc8ncc9ccccc9n8)CC7)cc6)CC5)CC4)cc3C2=O)C(=O)N1 (stereo partly shown) [YJZ1097]: 15.2
- O=C1CCC(N2C(=O)c3cc(F)c(N4CCC(N5CCN(c6ccc(N(C(=O)NCc7ccccc7)[C@H]7CC[C@H](Nc8ncc9ccccc9n8)CC7)cn6)CC5)CC4)cc3C2=O)C(=O)N1 (stereo partly shown) [YJZ1206]: 6.24

====

# Protocol description: Pharmacokinetics and bioavailability test in rats (Example 60)
# Format: in vivo
# Measurement conditions: Sprague-Dawley, rat, plasma; SD rats, IV 2.5 mg/kg
Recorded metric: clearance (mL/min/kg)

• O=C1CCC(N2C(=O)c3ccc(N4CCC(N5CCN(c6ccc(N(C(=O)NCc7ccccc7)[C@H]7CC[C@H](Nc8ncc9ccccc9n8)CC7)cn6)CC5)CC4)cc3C2=O)C(=O)N1 (stereo partly shown) = 3.93
• O=C1CCC(N2C(=O)c3ccc(N4CCC(N5CCN(c6ccc(N(C(=O)NCc7ccccc7)[C@H]7CC[C@H](Nc8ncc9ccccc9n8)CC7)cc6F)CC5)CC4)cc3C2=O)C(=O)N1 (stereo partly shown) = 6.01
• O=C1CCC(N2C(=O)c3ccc(N4CCC(CN5CCN(c6ccc(N(C(=O)NCc7ccccc7)[C@H]7CC[C@H](Nc8ncc9ccccc9n8)CC7)cc6)CC5)CC4)cc3C2=O)C(=O)N1 (stereo partly shown) = 3.12
• O=C1CCC(N2C(=O)c3ccc(N4CCC(N5CCN(c6ccc(N(C(=O)NCc7ccccc7F)[C@H]7CC[C@H](Nc8ncc9ccccc9n8)CC7)cc6)CC5)CC4)cc3C2=O)C(=O)N1 (stereo partly shown) = 5.22

====

# Protocol description: Pharmacokinetics and bioavailability test in rats (Example 57)
# Assay type: in vivo
# Measurement conditions: rat, plasma, iv; SD rats, i.v. 2.5 mg/kg; read-out: MRT(0-t)
Recorded metric: MRT last (h)

• N#Cc1ccc(N[C@H]2CC[C@H](N(C(=O)NCc3ccccc3)c3ccc(N4CCN(C5CCN(c6cc7c(cc6F)C(=O)N(C6CCC(=O)NC6=O)C7=O)CC5)CC4)cc3)CC2)nc1 (stereo partly shown) = 2.2

====

half-life reference
# Protocol description: Pharmacokinetics and bioavailability test in rats (Example 60)
# Type: in vivo
# Measurement conditions: rat, in vivo; SD rats, IV 2.5 mg/kg
Recorded metric: half-life

• O=C1CCC(N2C(=O)c3cccc(OCC(=O)N4CCN(c5ccc(N(C(=O)NCc6ccccc6)[C@H]6CC[C@H](Nc7ncc8ccccc8n7)CC6)cc5)CC4)c3C2=O)C(=O)N1 (stereo partly drawn) [YJZ9069] = 4.39 h
• O=C1CCC(N2C(=O)c3ccc(N4CCN(C5CCN(c6ccc(N(C(=O)NCc7ccccc7)[C@H]7CC[C@H](Nc8ncc9ccccc9n8)CC7)cc6)CC5)CC4)cc3C2=O)C(=O)N1 (stereo partly drawn) [YJZ1202] = 4.13 h
• O=C1CCC(N2C(=O)c3ccc(N4CC(CN5CCN(c6ccc(N(C(=O)NCc7ccccc7)[C@H]7CC[C@H](Nc8ncc9ccccc9n8)CC7)cc6)CC5)C4)cc3C2=O)C(=O)N1 (stereo partly drawn) [YJZ1102] = 10.7 h

====

# Protocol description: Pharmacokinetics and bioavailability test in rats (Example 60)
# Type: in vivo
# Measurement conditions: rat, in vivo; SD rats, IV 2.5 mg/kg
Recorded metric: clearance (mL/min/kg)

- O=C1CCC(N2C(=O)c3ccc(N4CC(CN5CCN(c6ccc(N(C(=O)NCc7ccccc7)[C@H]7CC[C@H](Nc8ncc9ccccc9n8)CC7)cc6)CC5)C4)cc3C2=O)C(=O)N1 (stereo partly drawn) [YJZ1102]: 3.32
- O=C1CCC(N2C(=O)c3ccc(N4CCN(C5CCN(c6ccc(N(C(=O)NCc7ccccc7)[C@H]7CC[C@H](Nc8ncc9ccccc9n8)CC7)cc6)CC5)CC4)cc3C2=O)C(=O)N1 (stereo partly drawn) [YJZ1202]: 6.7
- O=C1CCC(N2C(=O)c3cccc(OCC(=O)N4CCN(c5ccc(N(C(=O)NCc6ccccc6)[C@H]6CC[C@H](Nc7ncc8ccccc8n7)CC6)cc5)CC4)c3C2=O)C(=O)N1 (stereo partly drawn) [YJZ9069]: 14.1

====

# Protocol description: Pharmacokinetics and bioavailability test in rats (Example 60)
# Assay type: in vivo
# Measurement conditions: rat, in vivo; SD rats, IV 2.5 mg/kg
Recorded metric: Cmax (ng/mL)

* O=C1CCC(N2C(=O)c3cccc(OCC(=O)N4CCN(c5ccc(N(C(=O)NCc6ccccc6)[C@H]6CC[C@H](Nc7ncc8ccccc8n7)CC6)cc5)CC4)c3C2=O)C(=O)N1 (stereo partly drawn) | 3510
* O=C1CCC(N2C(=O)c3ccc(N4CC(CN5CCN(c6ccc(N(C(=O)NCc7ccccc7)[C@H]7CC[C@H](Nc8ncc9ccccc9n8)CC7)cc6)CC5)C4)cc3C2=O)C(=O)N1 (stereo partly drawn) | 2200
* O=C1CCC(N2C(=O)c3ccc(N4CCN(C5CCN(c6ccc(N(C(=O)NCc7ccccc7)[C@H]7CC[C@H](Nc8ncc9ccccc9n8)CC7)cc6)CC5)CC4)cc3C2=O)C(=O)N1 (stereo partly drawn) | 2310
